B1: library; numbered along this chain (parent)
chain: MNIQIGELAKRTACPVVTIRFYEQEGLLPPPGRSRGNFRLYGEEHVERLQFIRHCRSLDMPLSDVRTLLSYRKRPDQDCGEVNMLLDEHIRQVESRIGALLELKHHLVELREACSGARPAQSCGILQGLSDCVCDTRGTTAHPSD

Variants of: B1
Test: sfGFP reporter fluorescence (15 h) (µM FITC); higher = higher leak
Details: library round: Round 0; ligand: none
Think of 0.06 as a floor: if sfGFP reporter fluorescence stands on it or above, it is criterion met; beneath it, criterion not met.

Data request: Is the recorded value of sfGFP reporter fluorescence equal to or greater than 0.06 for this variant? P143K
Data returned: criterion not met

Data request: Is the recorded value of sfGFP reporter fluorescence equal to or greater than 0.06 for this variant? D64A L68S
Data returned: criterion met

Data request: Is the recorded value of sfGFP reporter fluorescence equal to or greater than 0.06 for this variant? D131S
Data returned: criterion met

Data request: Is the recorded value of sfGFP reporter fluorescence equal to or greater than 0.06 for this variant? L27S
Data returned: criterion met

Data request: Is the recorded value of sfGFP reporter fluorescence equal to or greater than 0.06 for this variant? P143D
Data returned: criterion not met

Data request: Is the recorded value of sfGFP reporter fluorescence equal to or greater than 0.06 for this variant? P61S
Data returned: criterion met

Data request: Is the recorded value of sfGFP reporter fluorescence equal to or greater than 0.06 for this variant? P61T
Data returned: criterion met

Data request: Is the recorded value of sfGFP reporter fluorescence equal to or greater than 0.06 for this variant? M60L D64K G128I
Data returned: criterion met

Data request: Is the recorded value of sfGFP reporter fluorescence equal to or greater than 0.06 for this variant? V108G
Data returned: criterion not met

Data request: Is the recorded value of sfGFP reporter fluorescence equal to or greater than 0.06 for this variant? Y41F
Data returned: criterion not met

Data request: Is the recorded value of sfGFP reporter fluorescence equal to or greater than 0.06 for this variant? V46F
Data returned: criterion not met

Data request: Is the recorded value of sfGFP reporter fluorescence equal to or greater than 0.06 for this variant? E43N
Data returned: criterion not met

Data request: Is the recorded value of sfGFP reporter fluorescence equal to or greater than 0.06 for this variant? S95A
Data returned: criterion met

Data request: Is the recorded value of sfGFP reporter fluorescence equal to or greater than 0.06 for this variant? E112A
Data returned: criterion met

Data request: Is the recorded value of sfGFP reporter fluorescence equal to or greater than 0.06 for this variant? L62H
Data returned: criterion met

Data request: Is the recorded value of sfGFP reporter fluorescence equal to or greater than 0.06 for this variant? D131W
Data returned: criterion not met

Data request: Is the recorded value of sfGFP reporter fluorescence equal to or greater than 0.06 for this variant? D64K K104V G128I
Data returned: criterion met

Data request: Is the recorded value of sfGFP reporter fluorescence equal to or greater than 0.06 for this variant? L126P
Data returned: criterion not met

Data request: Is the recorded value of sfGFP reporter fluorescence equal to or greater than 0.06 for this variant? P15F
Data returned: criterion met

Data request: Is the recorded value of sfGFP reporter fluorescence equal to or greater than 0.06 for this variant? L28R
Data returned: criterion met

Data request: Is the recorded value of sfGFP reporter fluorescence equal to or greater than 0.06 for this variant? E94S
Data returned: criterion met

Data request: Is the recorded value of sfGFP reporter fluorescence equal to or greater than 0.06 for this variant? L85I
Data returned: criterion not met

Data request: Is the recorded value of sfGFP reporter fluorescence equal to or greater than 0.06 for this variant? C55W
Data returned: criterion met

Data request: Is the recorded value of sfGFP reporter fluorescence equal to or greater than 0.06 for this variant? E112F
Data returned: criterion not met

Data request: Is the recorded value of sfGFP reporter fluorescence equal to or greater than 0.06 for this variant? L107Q
Data returned: criterion not met

Data request: Is the recorded value of sfGFP reporter fluorescence equal to or greater than 0.06 for this variant? D135P
Data returned: criterion not met

Data request: Is the recorded value of sfGFP reporter fluorescence equal to or greater than 0.06 for this variant? G128F
Data returned: criterion met

Data request: Is the recorded value of sfGFP reporter fluorescence equal to or greater than 0.06 for this variant? Y22S
Data returned: criterion met

Data request: Is the recorded value of sfGFP reporter fluorescence equal to or greater than 0.06 for this variant? R66A
Data returned: criterion met

Data request: Is the recorded value of sfGFP reporter fluorescence equal to or greater than 0.06 for this variant? R35A
Data returned: criterion met

Data request: Is the recorded value of sfGFP reporter fluorescence equal to or greater than 0.06 for this variant? E112W
Data returned: criterion not met

Data request: Is the recorded value of sfGFP reporter fluorescence equal to or greater than 0.06 for this variant? K104P
Data returned: criterion not met

Data request: Is the recorded value of sfGFP reporter fluorescence equal to or greater than 0.06 for this variant? P61G
Data returned: criterion met

Data request: Is the recorded value of sfGFP reporter fluorescence equal to or greater than 0.06 for this variant? R111Y
Data returned: criterion not met

Data request: Is the recorded value of sfGFP reporter fluorescence equal to or greater than 0.06 for this variant? F21P
Data returned: criterion met

Data request: Is the recorded value of sfGFP reporter fluorescence equal to or greater than 0.06 for this variant? L28K
Data returned: criterion met

Data request: Is the recorded value of sfGFP reporter fluorescence equal to or greater than 0.06 for this variant? Q4A
Data returned: criterion not met

Data request: Is the recorded value of sfGFP reporter fluorescence equal to or greater than 0.06 for this variant? R20W
Data returned: criterion met

Data request: Is the recorded value of sfGFP reporter fluorescence equal to or greater than 0.06 for this variant? D131P
Data returned: criterion not met

Data request: Is the recorded value of sfGFP reporter fluorescence equal to or greater than 0.06 for this variant? K104H
Data returned: criterion met

Data request: Is the recorded value of sfGFP reporter fluorescence equal to or greater than 0.06 for this variant? R39I
Data returned: criterion not met

Data request: Is the recorded value of sfGFP reporter fluorescence equal to or greater than 0.06 for this variant? P61N D64K G128M
Data returned: criterion met

Data request: Is the recorded value of sfGFP reporter fluorescence equal to or greater than 0.06 for this variant? P61N D64K G128I
Data returned: criterion met

Data request: Is the recorded value of sfGFP reporter fluorescence equal to or greater than 0.06 for this variant? C114A
Data returned: criterion not met

Data request: Is the recorded value of sfGFP reporter fluorescence equal to or greater than 0.06 for this variant? Q127A
Data returned: criterion met

Data request: Is the recorded value of sfGFP reporter fluorescence equal to or greater than 0.06 for this variant? L107C G128M
Data returned: criterion met

Data request: Is the recorded value of sfGFP reporter fluorescence equal to or greater than 0.06 for this variant? E94D
Data returned: criterion not met

Data request: Is the recorded value of sfGFP reporter fluorescence equal to or greater than 0.06 for this variant? L100A
Data returned: criterion met

Data request: Is the recorded value of sfGFP reporter fluorescence equal to or greater than 0.06 for this variant? D64K K104V L107C G128I
Data returned: criterion met

Data request: Is the recorded value of sfGFP reporter fluorescence equal to or greater than 0.06 for this variant? M60L L107C
Data returned: criterion met

Data request: Is the recorded value of sfGFP reporter fluorescence equal to or greater than 0.06 for this variant? P143V
Data returned: criterion not met
